Reported Ki values are given for each entry in this list.
molecular target: opioid δ receptor (Rattus norvegicus)
Sequence (P33533 whole entry): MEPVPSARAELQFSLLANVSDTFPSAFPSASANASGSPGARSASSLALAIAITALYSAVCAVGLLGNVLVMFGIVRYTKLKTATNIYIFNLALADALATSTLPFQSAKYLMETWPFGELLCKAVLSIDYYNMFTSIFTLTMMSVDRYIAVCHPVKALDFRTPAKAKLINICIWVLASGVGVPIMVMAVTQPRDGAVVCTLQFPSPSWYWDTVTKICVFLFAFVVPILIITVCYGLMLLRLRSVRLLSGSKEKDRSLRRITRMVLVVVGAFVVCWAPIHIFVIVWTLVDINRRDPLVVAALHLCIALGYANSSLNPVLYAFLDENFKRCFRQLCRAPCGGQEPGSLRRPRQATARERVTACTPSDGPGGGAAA

Below, each entry is followed by its recorded Ki result.
>  <Compound>
Cc1oc(=O)oc1COC(=O)c1ccc2c3c([nH]c2c1)[C@@H]1Oc2c(O)ccc4c2[C@@]12CCN(CC1CC1)[C@H](C4)[C@]2(O)C3

>  <Ki>
1.06 nM

$$$$
>  <Compound>
O=C(O)c1ccc2c3c([nH]c2c1)[C@@H]1Oc2c(O)ccc4c2[C@@]12CCN(CC1CC1)[C@H](C4)[C@]2(O)C3

>  <Ki>
0.62 nM

$$$$

The record that follows has no Ki shown yet.
Task: Form: Entry = CC(=O)OC(C)OC(=O)c1ccc2c3c([nH]c2c1)[C@@H]1Oc2c(O)ccc4c2[C@@]12CCN(CC1CC1)[C@H](C4)[C@]2(O)C3 (stereo partly drawn) | System = opioid δ receptor (Rattus norvegicus) | Ki = ____
Result: 1.38 nM
